Test system: K4 kissing-loop RNA reporter;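 note: bound reporter read as fluorescence of individual clusters on recovered sequencing chips by microscopy, with normalized cluster intensities fitted with a binding model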
Assay: apparent KD of K4 kissing-loop reporter; higher = weaker reporter binding
Details: Eterna round: R107; input ligand: none
resultType: apparent KD of K4 kissing-loop reporter (nM)
Give the quantity in nM, number only.

input: Which measured apparent KD of K4 kissing-loop reporter value corresponds to UGUAUGUGAUUUGAUACCAGACCAGCUGGUGGUUCACGAGUGAUGUUCGUGUUGGUUUGGGUCCCUUGGCAGCAAAUCGCAUACU [KL-SSTheoB12] ?
output: 144

input: What about this sequence? `GCCGUAGAUUGAAGGAGCGGGCCGUAGUGAUGUUACGCCAAUUUAUCUUUUCUUGAUGUGGCCCAGGUAGGUCGCAAUCUACGGC`
output: 216

input: What about this sequence? AAUAAAAUCACGGCCGCCACUGAUUUCCGUAUUAGGAGUGAUGUUCCUAUGACUAUAUAAUUUAACAGGACCGGGUGAAUAUUUA [#21 K4 Tryptophan B Exclusion]
output: 110

input: What about this sequence? AAAAUAAACCAGUGAUGUUGGUGUCCAGAUACCAGCGGUAAAAUCCGCCCUUGGCAGCUGUGGACGUACAAAAUAAGUACGUCCU [MatMod 4 - Jieux - Same State - Theophylline A]
output: 463

input: What about this sequence? AACCUACGAUCACAAUAGUGAUUGUAGGACUAGGAUAUGCUGAAAAGCAGAAGGAGUGAUGUUCCACUCAUGAAUAACAUGAGAA [FmnAX 4 #OpenEnded #K4Late #CoaxialStacking]
output: 410

input: What about this sequence? CGGAGUGAUGUUCCUUUUAUUAAUUAUUAACGAGGACCGGUACGGCCGCCACUCGAUUUAGCUUUUAUUUAAUGCUUGGAUGUUU [JR_SSTryptoA_Sub003]
output: 157
